Reference source: ChEMBL document CHEMBL5034015

Molecular target: Induced myeloid leukemia cell differentiation protein Mcl-1 (Homo sapiens, UniProt Q07820)
Sequence (Q07820 whole entry): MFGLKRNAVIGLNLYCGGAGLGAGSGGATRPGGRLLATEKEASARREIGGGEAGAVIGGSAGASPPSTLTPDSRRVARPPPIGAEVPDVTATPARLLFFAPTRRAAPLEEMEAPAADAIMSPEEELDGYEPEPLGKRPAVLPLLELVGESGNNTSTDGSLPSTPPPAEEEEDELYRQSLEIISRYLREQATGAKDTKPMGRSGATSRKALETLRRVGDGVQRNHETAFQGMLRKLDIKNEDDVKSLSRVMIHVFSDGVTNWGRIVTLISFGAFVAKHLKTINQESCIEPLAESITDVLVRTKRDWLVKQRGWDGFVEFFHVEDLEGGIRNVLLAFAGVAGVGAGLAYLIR
Assay: Binding affinity to full length human MCL1 expressed in Escherichia coli BL21 (DE3) assessed as inhibition constant preincubated for 30 mins followed by 5-FAM-QEDIIIINIARHLAQVGDSMD-RSIPPG tracer addition and measured after 20 mins by fluorescence polarization assay
pKi: −log10 of the molar value.
# if value of pKi reaches 6, tag MET; if it stays below, tag NOT MET

1) COc1cccc(NC(=O)NCCNS(=O)(=O)c2ccc(-c3ccccc3OCc3ccccc3)s2)c1; NOT MET
2) Cc1cc(C)cc(NC(=O)NCCNS(=O)(=O)c2ccc(-c3ccccc3Oc3ccc(N)cc3)s2)c1; NOT MET
3) Cc1ccc(-c2ccsc2S(=O)(=O)NCCNC(=O)Nc2cc(Cl)cc(Cl)c2)c(Oc2ccc(O)c(O)c2)c1; MET
4) O=C(NCCNS(=O)(=O)c1ccc(-c2ccccc2Oc2ccc(O)c(O)c2)s1)Nc1cc(C(F)(F)F)cc(C(F)(F)F)c1; MET
5) COc1ccc(Oc2cc(C)ccc2-c2ccsc2S(=O)(=O)NCCNC(=O)Nc2cc(C(F)(F)F)cc(C(F)(F)F)c2)cc1OC; NOT MET
6) COc1ccc(Oc2ccc(C(C)C)cc2-c2ccsc2S(=O)(=O)NCCNC(=S)Nc2cc(C(F)(F)F)cc(C(F)(F)F)c2)cc1OC; NOT MET

* * *

# inhibition annotations
Biological target: Bcl-2-like protein 1 (Homo sapiens)
Assay: Binding affinity to full length human Bcl-xl expressed in Escherichia coli BL21 (DE3) at 100 uM preincubated for 30 mins followed by 5-FAM-QEDIIIINIARHLAQVGDSMD-RSIPPG tracer addition and measured after 20 mins by fluorescence polarization assay relative to control
Settings: time 50.0 min
OUTCOME MEASURE: inhibition

1) COc1ccc(Oc2ccc([N+](=O)[O-])cc2-c2ccsc2S(=O)(=O)N2CCN(C(=O)Nc3ccc([N+](=O)[O-])cc3)CC2)cc1OC; 44%
2) COc1ccc(Oc2ccccc2-c2ccsc2S(=O)(=O)N2CCN(C(=O)Nc3cc(C(F)(F)F)cc(C(F)(F)F)c3)CC2)cc1OC; 24%
3) O=[N+]([O-])c1ccc(NC(=S)N2CCN(S(=O)(=O)c3sccc3-c3ccccc3Oc3ccc(O)c(O)c3)CC2)cc1; 28%

* * *

Target: Induced myeloid leukemia cell differentiation protein Mcl-1 (Homo sapiens)
Assay: Binding affinity to full length human MCL1 expressed in Escherichia coli BL21 (DE3) at 100 uM preincubated for 30 mins followed by 5-FAM-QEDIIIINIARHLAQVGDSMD-RSIPPG tracer addition and measured after 20 mins by fluorescence polarization assay relative to control
Settings: time 50.0 min
// label = true (1) if inhibition is not less than 40%, otherwise false (0)

1) COc1ccc(Oc2ccccc2-c2ccsc2S(=O)(=O)N2CCN(C(=O)Nc3ccc(F)cc3)CC2)cc1OC; false (0)
2) O=C(Nc1ccc([N+](=O)[O-])cc1)N1CCN(S(=O)(=O)c2sccc2-c2ccccc2Oc2ccc(O)c(O)c2)CC1; true (1)
3) COc1ccc(Oc2ccc([N+](=O)[O-])cc2-c2ccsc2S(=O)(=O)N2CCN(C(=O)Nc3ccc([N+](=O)[O-])cc3)CC2)cc1OC; false (0)
4) O=S(=O)(c1sccc1-c1ccccc1Oc1ccc(O)c(O)c1)N1CCN(C(=S)Nc2cc(C(F)(F)F)cc(C(F)(F)F)c2)CC1; true (1)
5) COc1ccc(Oc2ccc([N+](=O)[O-])cc2-c2ccsc2S(=O)(=O)N2CCN(C(=S)Nc3ccc([N+](=O)[O-])cc3)CC2)cc1OC; false (0)
6) O=S(=O)(c1sccc1-c1ccccc1Oc1ccc(O)c(O)c1)N1CCN(C(=S)Nc2ccc(Cl)cc2)CC1; false (0)
7) O=[N+]([O-])c1ccc(NC(=S)N2CCN(S(=O)(=O)c3sccc3-c3ccccc3Oc3ccc(O)c(O)c3)CC2)cc1; true (1)
8) COc1ccc(Oc2ccccc2-c2ccsc2S(=O)(=O)N2CCN(C(=O)Nc3cccc([N+](=O)[O-])c3)CC2)cc1OC; false (0)
9) O=C(Nc1ccc(F)cc1)N1CCN(S(=O)(=O)c2sccc2-c2ccccc2Oc2ccc(O)c(O)c2)CC1; true (1)
10) COc1ccc(Oc2ccccc2-c2ccsc2S(=O)(=O)N2CCN(C(=S)Nc3cc(C(F)(F)F)cc(C(F)(F)F)c3)CC2)cc1OC; true (1)
11) COc1ccc(Oc2ccccc2-c2ccsc2S(=O)(=O)N2CCN(C(=S)Nc3ccc(Cl)cc3)CC2)cc1OC; true (1)
12) O=[N+]([O-])c1ccc(Oc2ccc(O)c(O)c2)c(-c2ccsc2S(=O)(=O)N2CCN(C(=S)Nc3cc(C(F)(F)F)cc(C(F)(F)F)c3)CC2)c1; true (1)
13) COc1ccc(Oc2ccccc2-c2ccsc2S(=O)(=O)N2CCN(C(=O)Nc3cc(C(F)(F)F)cc(C(F)(F)F)c3)CC2)cc1OC; true (1)
14) COc1ccc(Oc2ccccc2-c2ccsc2S(=O)(=O)N2CCN(C(=S)Nc3ccc([N+](=O)[O-])cc3)CC2)cc1OC; false (0)

* * *

Test system: HEK-293T
Assay: Cytotoxicity against HEK293T cells assessed as reduction in cell viability incubated for 48 hrs by CCK8 assay
Conditions: Homo sapiens
pIC50: −log10 of the molar value.
OUTCOME MEASURE: pIC50

1) O=C(NCCNS(=O)(=O)c1ccc(-c2ccccc2O[C@H]2CC[C@H](O)CC2)s1)Nc1ccc([N+](=O)[O-])cc1; 5.05
2) CC(C)c1ccc(Oc2ccc(O)c(O)c2)c(-c2ccsc2S(=O)(=O)NCCNC(=S)Nc2ccc([N+](=O)[O-])cc2)c1; 4.79
3) O=C(Nc1ccc(F)cc1)N1CCN(S(=O)(=O)c2sccc2-c2ccccc2Oc2ccc(O)c(O)c2)CC1; 4.81
4) COc1ccc(Oc2ccc(C(C)C)cc2-c2ccsc2S(=O)(=O)NCCNC(=S)Nc2cc(C(F)(F)F)cc(C(F)(F)F)c2)cc1OC; 4.99
5) O=[N+]([O-])c1ccc(NC(=S)NCCNS(=O)(=O)c2ccc(-c3ccccc3O[C@H]3CC[C@H](O)CC3)s2)cc1; 4.98
6) Cc1ccc(-c2ccsc2S(=O)(=O)NCCNC(=O)Nc2cc(Cl)cc(Cl)c2)c(Oc2ccc(O)c(O)c2)c1; 5.17
7) O=C(NCCNS(=O)(=O)c1ccc(-c2ccccc2Oc2ccc(O)c(O)c2)s1)Nc1cc(C(F)(F)F)cc(C(F)(F)F)c1; 4.77
8) Cc1ccc(-c2ccsc2S(=O)(=O)NCCNC(=O)Nc2cccc([N+](=O)[O-])c2)c(Oc2ccc(O)c(O)c2)c1; 5.17

* * *

Target: Bcl-2-like protein 1 (Homo sapiens, UniProt Q07817)
Sequence (Q07817 whole entry): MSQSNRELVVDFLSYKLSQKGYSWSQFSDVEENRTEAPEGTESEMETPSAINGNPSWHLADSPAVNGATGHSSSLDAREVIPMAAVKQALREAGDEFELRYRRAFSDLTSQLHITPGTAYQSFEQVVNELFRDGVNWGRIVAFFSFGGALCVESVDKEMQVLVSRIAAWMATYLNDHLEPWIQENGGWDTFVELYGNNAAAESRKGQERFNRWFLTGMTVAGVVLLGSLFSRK
Experiment: Binding affinity to full length human Bcl-xl expressed in Escherichia coli BL21 (DE3) at up to 100 uM preincubated for 30 mins followed by 5-FAM-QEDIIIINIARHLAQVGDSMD-RSIPPG tracer addition and measured after 20 mins by fluorescence polarization assay
Conditions: dose microM <=100, time 50.0 min
The source made the active and inactive calls. How the calls were made is not given here.
OUTCOME MEASURE: Activity

1. COc1cccc(NC(=O)NCCNS(=O)(=O)c2ccc(-c3ccccc3OCc3ccccc3)s2)c1; inactive
2. COc1cccc(NC(=O)NCCNS(=O)(=O)c2ccc(-c3ccccc3Oc3ccc([N+](=O)[O-])c([N+](=O)[O-])c3)s2)c1; inactive
3. O=C(NCCNS(=O)(=O)c1ccc(-c2ccccc2OCc2ccccc2)s1)Nc1cc(C(F)(F)F)cc(C(F)(F)F)c1; inactive
4. O=[N+]([O-])c1ccc(NC(=S)NCCNS(=O)(=O)c2ccc(-c3ccccc3O[C@H]3CC[C@@H](O)CC3)s2)cc1; inactive
5. COc1ccc(Oc2ccc(C(C)C)cc2-c2ccsc2S(=O)(=O)NCCNC(=O)Nc2cc(C(F)(F)F)cc(C(F)(F)F)c2)cc1OC; inactive
6. O=C(NCCNS(=O)(=O)c1ccc(-c2ccccc2O[C@H]2CC[C@H](O)CC2)s1)Nc1cc(C(F)(F)F)cc(C(F)(F)F)c1; inactive
7. O=S(=O)(NCCNC(=S)Nc1cccc(Cl)c1)c1ccc(-c2ccccc2OCc2cccc(O)c2)s1; inactive
8. Cc1cc(C)cc(NC(=O)NCCNS(=O)(=O)c2ccc(-c3ccccc3Oc3ccc(N)cc3)s2)c1; inactive

* * *

Test system: HEK-293T
Assay: Cytotoxicity against HEK293T cells assessed as reduction in cell viability incubated for 48 hrs by CCK8 assay
Details: Homo sapiens
pIC50: −log10 of the molar value.
OUTCOME MEASURE: pIC50

1) O=[N+]([O-])c1ccc(NC(=S)NCCNS(=O)(=O)c2ccc(-c3ccccc3O[C@H]3CC[C@@H](O)CC3)s2)cc1; 4.70
2) O=[N+]([O-])c1ccc(Oc2ccccc2-c2ccc(S(=O)(=O)NCCNC(=S)Nc3cc(C(F)(F)F)cc(C(F)(F)F)c3)s2)cc1; 5.22
3) COc1cccc(NC(=O)NCCNS(=O)(=O)c2ccc(-c3ccccc3Oc3ccc([N+](=O)[O-])c([N+](=O)[O-])c3)s2)c1; 4.75
4) O=S(=O)(NCCNC(=S)Nc1cccc(Cl)c1)c1ccc(-c2ccccc2OCc2ccccc2)s1; 4.99
